All values here come from paper PMC8881077.

target: ratBuChE (Rattus norvegicus, UniProt Q9JKC1); construct: BuChE from rat serum or human serum (Sigma Co.); from tissue; host or cells: rat serum; test: ratBuChE inhibition, modified Ellman's method; type: biochemical
Sequence (Q9JKC1 24-597): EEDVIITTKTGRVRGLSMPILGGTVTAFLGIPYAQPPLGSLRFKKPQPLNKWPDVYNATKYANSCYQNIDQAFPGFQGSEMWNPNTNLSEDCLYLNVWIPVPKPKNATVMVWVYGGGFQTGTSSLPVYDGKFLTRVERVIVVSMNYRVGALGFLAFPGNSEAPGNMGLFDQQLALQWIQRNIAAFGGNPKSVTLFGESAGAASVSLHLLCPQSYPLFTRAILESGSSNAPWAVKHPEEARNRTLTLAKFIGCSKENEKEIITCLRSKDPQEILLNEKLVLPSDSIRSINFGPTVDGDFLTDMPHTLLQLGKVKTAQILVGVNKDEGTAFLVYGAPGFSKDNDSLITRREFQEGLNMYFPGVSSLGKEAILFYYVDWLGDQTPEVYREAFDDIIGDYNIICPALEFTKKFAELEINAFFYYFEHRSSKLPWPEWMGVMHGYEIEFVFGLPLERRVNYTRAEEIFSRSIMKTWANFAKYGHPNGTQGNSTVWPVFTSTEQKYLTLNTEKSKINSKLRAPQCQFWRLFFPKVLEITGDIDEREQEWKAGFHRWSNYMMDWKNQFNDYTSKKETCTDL
Each entry below carries its recorded pIC50.
Scale explanation: pIC50 corresponds to minus log10 of a concentration expressed in moles per litre.

Would you please look over these solved cases?
INSERT INTO measurements (molecule, data_value) VALUES
  ('CCN(CCCCOc1cc(O)c2c(c1)OC(c1ccc(O)cc1)CC2=O)Cc1ccccc1 (stereo not drawn)', 4.65),
  ('CCN1CCN(CCCOc2ccc(C3CC(=O)c4c(O)cc(OCCCN5CCN(CC)CC5)cc4O3)cc2)CC1 (stereo not drawn)', 4.80);

From here, focus on the item given below.
*Q* So what's the measured pIC50 for this one? O=c1cc(-c2ccc(OCCCCCN3CCC(Cc4ccccc4)CC3)cc2)oc2cc(OCCCCCN3CCC(Cc4ccccc4)CC3)cc(O)c12 [Compound 10m]
*A* 4.78
